Molecular target: T1, CLDN6 endogenously expressed by human cancer cell lines (ARK2, OVCA429) (human, UniProt P56747 1-220)
T1 construct: Untagged endogenous protein; also called Endogenous CLDN6+
T1 sequence: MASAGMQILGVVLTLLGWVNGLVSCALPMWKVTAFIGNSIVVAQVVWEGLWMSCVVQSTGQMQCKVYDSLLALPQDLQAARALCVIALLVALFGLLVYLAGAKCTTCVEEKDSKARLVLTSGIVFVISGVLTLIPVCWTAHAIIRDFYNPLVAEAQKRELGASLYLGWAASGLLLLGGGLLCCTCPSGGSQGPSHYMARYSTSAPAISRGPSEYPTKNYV
Test: FACS, AF647-labelled mAb, ARK2 cells
Readout type: EC50 (nM)
Record the value in nM, omitting the unit from your answer.

Exercise: Query (binder): AB11 (antibody, V domains shown, Labelled with Alexa Fluor 647 NHS ester for FACS) VH: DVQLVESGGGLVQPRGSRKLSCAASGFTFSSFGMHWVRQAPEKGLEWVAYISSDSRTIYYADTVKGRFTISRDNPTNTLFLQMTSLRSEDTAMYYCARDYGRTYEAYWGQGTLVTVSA VL: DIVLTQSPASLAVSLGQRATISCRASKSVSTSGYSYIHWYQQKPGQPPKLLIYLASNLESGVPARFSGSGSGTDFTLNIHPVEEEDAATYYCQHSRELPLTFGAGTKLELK ; field requested: EC50
Key: 363

Taken from patent US20250333501A1.
